Measured % Phosphatase Activity (compared to DMSO) PRL-1 values are reported for all entries that follow.
Target: recombinant PRL-1 (Homo sapiens)
Construct: 6xHis (N, cleaved yes); made in house; host or cells: E. coli One Shot BL21 Star
Sequence (Q93096 1-173): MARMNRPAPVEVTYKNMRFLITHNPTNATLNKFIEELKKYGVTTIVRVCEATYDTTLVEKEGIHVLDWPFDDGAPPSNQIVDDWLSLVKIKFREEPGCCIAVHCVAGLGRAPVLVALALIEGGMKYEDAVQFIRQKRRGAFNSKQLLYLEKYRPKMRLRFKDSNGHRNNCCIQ
Assay: In vitro phosphatase assay (DiFMUP hydrolysis), PRL-1; further: test concentration or dose not given here
Type: biochemical
Conditions: FDA-approved drug screen; compared to DMSO
Counter-ions that a name gives are not always drawn.
The response must be a number in % with no trailing unit.

Fill in the blank: the reported % Phosphatase Activity (compared to DMSO) PRL-1 of COc1cccc2c1C(=O)c1c(O)c3c(c(O)c1C2=O)C[C@@](O)(C(=O)CO)C[C@@H]3O[C@H]1C[C@H](N)[C@@H](O)[C@H](C)O1 [Epirubicin HCl] is ____. 78

Fill in the blank: the reported % Phosphatase Activity (compared to DMSO) PRL-1 of COc1c(C)c2c(c(O)c1C/C=C(\C)CCC(=O)O)C(=O)OC2 [Mycophenolic acid] is ____. 125

Next:
Fill in the blank: the reported % Phosphatase Activity (compared to DMSO) PRL-1 of CCN(CC)Cc1cc(Nc2ccnc3cc(Cl)ccc23)ccc1O.Cl.Cl.O.O [Amodiaquin (dihydrochloride dihydrate)] is ____. 84

Fill in the blank: the reported % Phosphatase Activity (compared to DMSO) PRL-1 of CC(=O)O[C@]1(C(C)=O)CC[C@H]2[C@@H]3C=C(Cl)C4=CC(=O)CC[C@]4(C)[C@H]3CC[C@@]21C [Chlormadinone acetate] is ____. 85

Fill in the blank: the reported % Phosphatase Activity (compared to DMSO) PRL-1 of COC(=O)C1=CCCN(C)C1 [Arecoline] is ____. 98

Fill in the blank: the reported % Phosphatase Activity (compared to DMSO) PRL-1 of Clc1ccc(C(c2ccccc2Cl)C(Cl)Cl)cc1 (stereo not drawn) [Mitotane] is ____. 98

Fill in the blank: the reported % Phosphatase Activity (compared to DMSO) PRL-1 of O.O.O.O.O=C([O-])CC(O)(CC(=O)[O-])C(=O)[O-].[Li+].[Li+].[Li+] [Citric acid trilithium salt tetrahydrate] is ____. 93

Fill in the blank: the reported % Phosphatase Activity (compared to DMSO) PRL-1 of CCOC(=O)[C@H](CCc1ccccc1)N[C@H]1CCc2ccccc2N(CC(=O)O)C1=O [Benazepril HCl] is ____. 91
